Subject Of Test: T1, human glucose-dependent insulinotropic polypeptide receptor (GIPR) (human, UniProt P48546)
T1 sequence: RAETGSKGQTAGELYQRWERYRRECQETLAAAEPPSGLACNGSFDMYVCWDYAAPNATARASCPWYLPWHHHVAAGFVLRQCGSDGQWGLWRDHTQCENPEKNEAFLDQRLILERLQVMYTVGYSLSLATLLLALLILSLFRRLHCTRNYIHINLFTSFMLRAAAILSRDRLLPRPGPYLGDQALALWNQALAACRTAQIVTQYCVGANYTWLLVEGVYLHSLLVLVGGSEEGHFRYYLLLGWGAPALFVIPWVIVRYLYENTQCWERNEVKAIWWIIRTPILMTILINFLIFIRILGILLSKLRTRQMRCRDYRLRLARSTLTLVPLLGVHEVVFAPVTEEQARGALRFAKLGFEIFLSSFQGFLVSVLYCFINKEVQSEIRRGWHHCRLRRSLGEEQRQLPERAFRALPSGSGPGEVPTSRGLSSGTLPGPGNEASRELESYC
Assay Info: cell-based or functional assay
Numbered stars: 1 amine (or outer) side, 2 acyl side, 3 side chain; on linkers, the order of the positions; unused ones are H or OH. Square brackets hold non-standard residues; d marks the D form. Side chains are listed from the residue outwards. γGlu = O=C(O)[C@H](CCC(=O)[*:2])N[*:1]; AEEA = NCCOCCOCC(=O)O; Aib = CC(C)(N)C(=O)O
Cut-off 0.1 nM on Activity against human GIPR (EC50 nM); cAMP, HTRF, inclusive. At or above means 1 (yes); below means 0 (no).

Completed entries (count: 5):
{"Binder": "H-Y[Aib]EGTFTSDYSIYK([AEEA-AEEA-γGlu-C20‑OH])EKIAAQEFVNWLLAGGPSSGAPPPS-NH2 [compound 18# H-YAibEGTFTSDYSIYK(OEG-OEG-yGlu-C20-OH)EKIAAQEFVNWLLAGGPSSGAPPPS-NH2]", "Group": "0 (no)"}
{"Binder": "H-Y[Aib]EGTFTSDYSIYLEK([AEEA-AEEA-γGlu-C20‑OH])IAAQEFINWLIAGGPSSGAPPPS-NH2 [compound 10# H-YAibEGTFTSDYSIYLEK(OEG-OEG-yGlu-C20-OH)IAAQEFINWLIAGGPSSGAPPPS-NH2]", "Group": "0 (no)"}
{"Binder": "H-Y[Aib]EGTFTSDYSIYLEK([AEEA-AEEA-γGlu-C20‑OH])IAAQEFVNWLIAGGPSSGAPPPS-NH2 [compound 9# H-YAibEGTFTSDYSIYLEK(OEG-OEG-yGlu-C20-OH)IAAQEFVNWLIAGGPSSGAPPPS-NH2]", "Group": "0 (no)"}
{"Binder": "H-Y[Aib]EGTFTSDYSIYK([AEEA-AEEA-γGlu-C20‑OH])EKIAAQEFINWLLAGGPSSGAPPPS-NH2 [compound 16# H-YAibEGTFTSDYSIYK(OEG-OEG-yGlu-C20-OH)EKIAAQEFINWLLAGGPSSGAPPPS-NH2]", "Group": "0 (no)"}
{"Binder": "H-Y[Aib]EGTFTSDYSIYK([AEEA-AEEA-γGlu-C20‑OH])ERIAAQEFVNWLLAGGPSSGAPPPS-NH2 [compound 17# H-YAibEGTFTSDYSIYK(OEG-OEG-yGlu-C20-OH)ERIAAQEFVNWLLAGGPSSGAPPPS-NH2]", "Group": "1 (yes)"}

Confirm if Activity against human GIPR (EC50 nM); cAMP, HTRF reported for the binder H-Y[Aib]EGTFTSDYSIYK([AEEA-AEEA-γGlu-C20‑OH])EKIAAQEFVNWLIAGGPSSGAPPPS-NH2 [compound 12# H-YAibEGTFTSDYSIYK(OEG-OEG-yGlu-C20-OH)EKIAAQEFVNWLIAGGPSSGAPPPS-NH2] is 0.1 nM or above.
1 (yes)

Confirm if Activity against human GIPR (EC50 nM); cAMP, HTRF reported for the binder H-Y[Aib]EGTFTSDYSIYK([AEEA-AEEA-γGlu-C20‑OH])ERIAAQEFVNWLIAGGPSSGAPPPS-NH2 [compound 13# H-YAibEGTFTSDYSIYK(OEG-OEG-yGlu-C20-OH)ERIAAQEFVNWLIAGGPSSGAPPPS-NH2] is 0.1 nM or above.
1 (yes)

Confirm if Activity against human GIPR (EC50 nM); cAMP, HTRF reported for the binder H-Y[Aib]EGTFTSDYSIYK([AEEA-AEEA-γGlu-C20‑OH])EKIAAQEFINWLIAGGPSSGAPPPS-NH2 [compound 14# H-YAibEGTFTSDYSIYK(OEG-OEG-yGlu-C20-OH)EKIAAQEFINWLIAGGPSSGAPPPS-NH2] is 0.1 nM or above.
1 (yes)

Confirm if Activity against human GIPR (EC50 nM); cAMP, HTRF reported for the binder H-Y[Aib]EGTFTSDYSIYK([AEEA-AEEA-γGlu-C20‑OH])ERIAAQEFINWLIAGGPSSGAPPPS-NH2 [compound 15# H-YAibEGTFTSDYSIYK(OEG-OEG-yGlu-C20-OH)ERIAAQEFINWLIAGGPSSGAPPPS-NH2] is 0.1 nM or above.
1 (yes)
